biological target: KRAS-G13D (Homo sapiens, UniProt P01116, G13D); assay: SOS-catalyzed nucleotide exchange assay (Procedure A, TR-FRET), KRAS-G13D; assay type: biochemical; details: nucleotide exchange, Procedure A; read-out: KRAS G13D GNE IC50
Sequence (P01116 with tags, fused parts or gaps isoform P01116-2 G13D): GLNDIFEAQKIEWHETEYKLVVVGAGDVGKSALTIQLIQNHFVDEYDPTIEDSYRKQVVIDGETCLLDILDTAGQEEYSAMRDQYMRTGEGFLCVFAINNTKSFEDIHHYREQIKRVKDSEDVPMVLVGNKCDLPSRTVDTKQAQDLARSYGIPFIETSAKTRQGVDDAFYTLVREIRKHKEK
assay.metric: pIC50
Units for pIC50: none; it is -log10 of a concentration expressed in mol/L.

Use the examples below as a reference point.
- Cc1cc2[nH]ncc2c(-c2nccc3c2sc2nc(OC[C@@]45CCCN4C[C@H](F)C5)nc(N4CCOC[C@@](C)(O)C4)c23)c1-c1ccco1: 7.53
- Cn1c2nc(OC[C@@]34CCCN3C[C@H](F)C4)nc(N3CCOC[C@@](C)(O)C3)c2c2ccnc(-c3c(C(F)F)c(Cl)cc4[nH]ncc34)c21 (single isomer, unassigned): 6.98
- [2H]C([2H])([2H])N(C[C@@]1(COc2nc(N3CCOC[C@@](C)(O)C3)c3c(n2)sc2c(-c4c(C5(F)CC5)c(Cl)cc5[nH]ncc45)nccc23)CC1(F)F)C([2H])([2H])[2H]: 7.82
- Cc1cc2[nH]ncc2c(-c2nccc3c2sc2nc(OC[C@@]45CCCN4C[C@H](F)C5)nc(NC4(CO)COC4)c23)c1C(F)(F)F: 6.07

Q) Input `C#Cc1csc2cc3[nH]ncc3c(-c3nccc4c3sc3nc(OC[C@@]56CCCN5C[C@H](F)C6)nc(N5CCOC[C@@](C)(O)C5)c34)c12` , output reported pIC50.
A) 8.51

====

target: KRAS-WT (Homo sapiens); assay: SOS-catalyzed nucleotide exchange assay (Procedure A, TR-FRET), KRAS-WT; type: biochemical; details: nucleotide exchange, read-out: KRAS WT GNE IC50
Sequence (P01116 with tags, fused parts or gaps isoform P01116-2): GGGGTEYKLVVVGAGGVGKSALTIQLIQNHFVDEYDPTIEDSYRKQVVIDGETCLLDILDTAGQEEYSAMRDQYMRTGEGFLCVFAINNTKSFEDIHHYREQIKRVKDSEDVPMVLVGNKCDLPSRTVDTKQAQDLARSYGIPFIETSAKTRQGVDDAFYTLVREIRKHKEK
assay.metric: pIC50
The scale used: pIC50 is minus the common logarithm of the concentration in molar units.

Q) Respond only with pIC50 recorded for `Cc1cc2[nH]ncc2c(-c2nccc3c2sc2nc(OC[C@@]45CCCN4C[C@H](F)C5)nc(N4CCOC[C@]5(CCO5)C4)c23)c1C(F)(F)F`
A) 6.88

Q) Return pIC50 (reported value) for this molecule: `Cc1cc2[nH]ncc2c(-c2nccn3c2cc2nc(OC[C@]4(CN(C)C)CC4(F)F)nc(N4CCOC[C@@](C)(O)C4)c23)c1C1CC1`
A) 6.78

Q) Give pIC50 for the following molecule: `C[C@@]1(O)COCCN(c2nc(OC[C@@]34C[C@H](F)CN3CC3(CC3)C4)nc3sc4c(-c5c(C6CC6)c(Cl)cc6[nH]ncc56)nccc4c23)C1`
A) 6.59

====

biological target: KRAS-G12V (Homo sapiens, UniProt P01116, G12V); experiment: SOS-catalyzed nucleotide exchange assay (Procedure A, TR-FRET), KRAS-G12V; type: biochemical; settings: nucleotide exchange, read-out: KRAS G12V GNE IC50
Sequence (P01116 with tags, fused parts or gaps isoform P01116-2 G12V): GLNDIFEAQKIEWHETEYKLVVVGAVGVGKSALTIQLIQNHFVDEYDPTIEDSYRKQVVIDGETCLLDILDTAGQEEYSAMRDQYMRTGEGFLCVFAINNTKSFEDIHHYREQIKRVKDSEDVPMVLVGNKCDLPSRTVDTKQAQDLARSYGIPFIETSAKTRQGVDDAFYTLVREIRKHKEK
pIC50: −log10 of the molar value.
pIC50 below 7 gives false (0); pIC50 at or above it gives true (1).

• Cc1cc2[nH]ncc2c(-c2nccc3c2sc2nc(OC[C@@]45CCCN4C[C@H](F)C5)nc(N4CCOC[C@]5(CCO5)C4)c23)c1C(F)(F)F = true (1)

Q) Tell me whether pIC50 is at least 7 here: `Cc1cc2[nH]ncc2c(-c2nccc3c2oc2nc(OC[C@]4(CN(C)C)CC4(F)F)nc(N4CCOC[C@@](C)(O)C4)c23)c1C(F)(F)F`
A) false (0)

Q) Could you verify whether the entry `C[C@@]1(O)COCCN(c2nc(OC[C@]3(CN4C[C@@H]5C[C@H]4CO5)CC3(F)F)nc3sc4c(-c5c(C6(F)CC6)c(Cl)cc6[nH]ncc56)nccc4c23)C1` shows pIC50 of no less than 7?
A) true (1)

Q) Determine whether this molecule has pIC50 no lower than 7: `C=C(C)c1c(C)cc2[nH]ncc2c1-c1nccc2c1sc1nc(OC[C@@]34CCCN3C[C@H](F)C4)nc(N3CCOC[C@@](C)(O)C3)c12`
A) true (1)

Q) Can `C[C@H]1CN(C[C@@]2(COc3nc(N4CCOC[C@@](C)(O)C4)c4c(n3)sc3c(-c5c(C6(F)CC6)c(Cl)cc6[nH]ncc56)nccc34)CC2(F)F)CCO1` be said to have pIC50 at or above 7?
A) false (0)
